Values compiled from patent US9681664B2.

# System: Puccinia triticina; Synonym: Puccinia recondite f. sp. tritici
# test-details: Wheat brown rust (PUCCRT) disease control on wheat seedlings
# Format: in vivo
# run-parameters: Puccinia triticina, 72 h; High volume application, 100 ppm; 3 Day Curative; read-out: PUCCRT 3DC disease control
metric: pest or weed control at 100 ppm

1. COc1ccnc(C(=O)N[C@H]2CCC[C@H](OC3CCCC3)[C@@H](Oc3ccccc3)[C@H](C)OC2=O)c1OCOC(=O)C(C)C [F79]
80 to 100%
2. CCCO[C@H]1[C@H](C)OC(=O)[C@@H](NC(=O)c2nccc(OC)c2OCOC(C)=O)CCC[C@@H]1OC1CCCC1 [F121]
80 to 100%
3. COc1ccnc(C(=O)N[C@H]2CCC[C@H](OCC(C)C)[C@@H](Oc3ccc(C)cc3)[C@H](C)OC2=O)c1OCOC(=O)C(C)C [F101]
80 to 100%
4. COc1ccnc(C(=O)N[C@H]2CCC[C@H](OCCCC(F)(F)F)[C@@H](OCCCC(F)(F)F)[C@H](C)OC2=O)c1OCOC(C)=O [F87]
80 to 100%
5. COc1ccnc(C(=O)N[C@H]2CCC[C@H](OC3CCCC3)[C@@H](OCCCC(F)(F)F)[C@H](C)OC2=O)c1OCOC(=O)C(C)C [F126]
80 to 100%

Then this molecule:
pest or weed control at 100 ppm for COc1ccnc(C(=O)N[C@H]2CCC[C@H](Oc3ccccc3)[C@@H](OCCCc3ccccc3)[C@H](C)OC2=O)c1OCOC(=O)C(C)C [F112] ?
80 to 100%

====

# System: Mycosphaerella graminicola; Anamorph: Septoria tritici
# test-details: Leaf blotch of wheat (SEPTTR) disease control on wheat seedlings
# Type: in vivo
# run-parameters: Zymoseptoria tritici, 24 h; Wheat Leaf Blotch; 1 Day Protectant; high volume application, 100 ppm; read-out: Disease Control SEPTTR 1 DP 100 ppm
# pest or weed control at 100 ppm listing for each entry below

1) CCCO[C@H]1CCC[C@H](NC(=O)c2nccc(OC)c2OC(C)=O)C(=O)O[C@@H](C)[C@@H]1Oc1ccc(Br)cc1
80 to 100%

pest or weed control at 100 ppm for CCCO[C@H]1[C@H](C)OC(=O)[C@@H](NC(=O)c2nccc(OC)c2OCOC(C)=O)CCC[C@@H]1Oc1ccc(F)cc1 ?
80 to 100%

What would you report for COc1ccnc(C(=O)N[C@H]2CCC[C@H](Oc3ccccc3)[C@@H](OC(=O)C3CCCC3)[C@H](C)OC2=O)c1OCOC(C)=O ?
80 to 100%

What would you report for CCCO[C@H]1CCC[C@H](NC(=O)c2nccc(OC)c2O)C(=O)O[C@@H](C)[C@@H]1Oc1cccc(Cl)c1 ?
80 to 100%

What would you report for C=C(C)c1ccc(O[C@H]2[C@H](C)OC(=O)[C@@H](NC(=O)c3nccc(OC)c3O)CCC[C@@H]2OCCC)cc1 ?
80 to 100%

What would you report for COc1ccnc(C(=O)N[C@H]2CCC[C@H](Oc3ccccc3)[C@@H](OC(=O)C3CC3)[C@H](C)OC2=O)c1OCOC(=O)C(C)C ?
80 to 100%

What would you report for CCCO[C@H]1CCC[C@H](NC(=O)c2nccc(OC)c2O)C(=O)O[C@@H](C)[C@@H]1Oc1ccc(Br)cc1 ?
80 to 100%

What would you report for COc1ccnc(C(=O)N[C@H]2CCC[C@H](Oc3ccccc3)[C@@H](OC(=O)C3CC3)[C@H](C)OC2=O)c1O ?
< 0%

What would you report for CCCOC(=O)O[C@H]1CCC[C@H](NC(=O)c2nccc(OC)c2OC(C)=O)C(=O)O[C@@H](C)[C@@H]1Oc1cc(C)cc(C)c1 ?
80 to 100%

What would you report for COc1ccnc(C(=O)N[C@H]2CCC[C@H](Oc3ccccc3)[C@@H](OC(=O)C3CCCC3)[C@H](C)OC2=O)c1O ?
80 to 100%

What would you report for COc1ccnc(C(=O)N[C@H]2CCC[C@H](Oc3ccccc3)[C@@H](OC(=O)C3CCCC3)[C@H](C)OC2=O)c1OCOC(=O)C(C)C ?
80 to 100%

What would you report for COCCC(=O)Oc1c(OC)ccnc1C(=O)N[C@H]1CCC[C@H](Oc2ccccc2)[C@@H](OC(=O)C2CC2)[C@H](C)OC1=O ?
80 to 100%

What would you report for CCCO[C@H]1CCC[C@H](NC(=O)c2nccc(OC)c2O)C(=O)O[C@@H](C)[C@@H]1Oc1ccc(OC)cc1 ?
80 to 100%

What would you report for CCCO[C@H]1[C@H](C)OC(=O)[C@@H](NC(=O)c2nccc(OC)c2O)CCC[C@@H]1Oc1ccc(F)cc1 ?
80 to 100%

What would you report for CCCO[C@H]1CCC[C@H](NC(=O)c2nccc(OC)c2O)C(=O)O[C@@H](C)[C@@H]1Oc1ccc(F)cc1 ?
80 to 100%

What would you report for CCCO[C@H]1CCC[C@H](NC(=O)c2nccc(OC)c2OC(C)=O)C(=O)O[C@@H](C)[C@@H]1Oc1ccc(OC)cc1 ?
80 to 100%

What would you report for CCCO[C@H]1CCC[C@H](NC(=O)c2nccc(OC)c2OC(C)=O)C(=O)O[C@@H](C)[C@@H]1Oc1cccc(Cl)c1 ?
80 to 100%

What would you report for CCOCC(=O)OCOc1c(OC)ccnc1C(=O)N[C@H]1CCC[C@H](Oc2ccccc2)[C@@H](OC(=O)C2CCCC2)[C@H](C)OC1=O ?
0 to 80%

What would you report for COc1ccnc(C(=O)N[C@H]2CCC[C@H](Oc3ccccc3)[C@@H](OC(=O)C3CC3)[C@H](C)OC2=O)c1OCOC(C)=O ?
80 to 100%

====

# Tested on: Puccinia triticina; Synonym: Puccinia recondite f. sp. tritici
# test-details: Wheat brown rust (PUCCRT) disease control on wheat seedlings
# Format: in vivo
# run-parameters: Puccinia triticina, 72 h; High volume application, 100 ppm; 3 Day Curative; read-out: PUCCRT 3DC disease control
metric: pest or weed control at 100 ppm

Here are 10 compounds together with their reported answers.
1) COc1ccc(O[C@H]2[C@H](C)OC(=O)[C@@H](NC(=O)c3nccc(OC)c3O)CCC[C@@H]2Oc2ccc(OC)cc2)cc1
< 0%
2) COc1ccnc(C(=O)N[C@H]2CCC[C@H](OC(=O)C3CCCC3)[C@@H](OC3CCCC3)[C@H](C)OC2=O)c1OCOC(=O)C(C)C
80 to 100%
3) COc1ccnc(C(=O)N[C@H]2CCC[C@H](OCC(C)C)[C@@H](OC(=O)C3CCCC3)[C@H](C)OC2=O)c1O
80 to 100%
4) COc1ccc(O[C@H]2CCC[C@H](NC(=O)c3nccc(OC)c3O)C(=O)O[C@@H](C)[C@@H]2OC2CCCC2)cc1
80 to 100%
5) COc1ccnc(C(=O)N[C@H]2CCC[C@H](OCC(C)C)[C@@H](Oc3ccc(C)cc3)[C@H](C)OC2=O)c1O
0 to 80%
6) CCCO[C@H]1[C@H](C)OC(=O)[C@@H](NC(=O)c2nccc(OC)c2O)CCC[C@@H]1Oc1ccccc1
80 to 100%
7) COc1ccc(O[C@H]2CCC[C@H](NC(=O)c3nccc(OC)c3O)C(=O)O[C@@H](C)[C@@H]2Oc2ccc(F)cc2)cc1
80 to 100%
8) COc1ccnc(C(=O)N[C@H]2CCC[C@H](Oc3ccc(F)cc3)[C@@H](Oc3ccc(F)cc3)[C@H](C)OC2=O)c1OCOC(C)=O
80 to 100%
9) COc1ccnc(C(=O)N[C@H]2CCC[C@H](Oc3ccccc3)[C@@H](OCC(C)C)[C@H](C)OC2=O)c1OCOC(=O)C(C)C
80 to 100%
10) CCCCCO[C@H]1[C@H](C)OC(=O)[C@@H](NC(=O)c2nccc(CC)c2O)CCC[C@@H]1OCC(C)C
0 to 80%

pest or weed control at 100 ppm for COc1ccnc(C(=O)N[C@H]2CCC[C@H](Oc3ccccc3)[C@@H](OC3CCCC3)[C@H](C)OC2=O)c1OCOC(C)=O ?
80 to 100%

====

# pest or weed control at 100 ppm listing for each entry below
# System: Mycosphaerella graminicola; Anamorph: Septoria tritici
# test-details: Leaf blotch of wheat (SEPTTR) disease control on wheat seedlings
# Format: in vivo
# run-parameters: Zymoseptoria tritici, 24 h; Wheat Leaf Blotch; 1 Day Protectant; high volume application, 100 ppm; read-out: Disease Control SEPTTR 1 DP 100 ppm

Here are 2 compounds together with their reported answers.
1) CCCO[C@H]1[C@H](C)OC(=O)[C@@H](NC(=O)c2nccc(OC)c2O)CCC[C@@H]1Oc1cccc(F)c1
80 to 100%
2) CCCO[C@H]1CCC[C@H](NC(=O)c2nccc(OC)c2OC(C)=O)C(=O)O[C@@H](C)[C@@H]1Oc1ccc(-c2ccccc2)cc1
80 to 100%

pest or weed control at 100 ppm for CCCO[C@H]1CCC[C@H](NC(=O)c2nccc(OC)c2OC(C)=O)C(=O)O[C@@H](C)[C@@H]1Oc1cccc(F)c1 ?
80 to 100%

What would you report for CCCO[C@H]1[C@H](C)OC(=O)[C@@H](NC(=O)c2nccc(OC)c2OC(C)=O)CCC[C@@H]1Oc1cccc(F)c1 ?
80 to 100%

What would you report for CCCO[C@H]1CCC[C@H](NC(=O)c2nccc(OC)c2O)C(=O)O[C@@H](C)[C@@H]1Oc1cccc(F)c1 ?
80 to 100%

What would you report for COc1ccnc(C(=O)N[C@H]2CCC[C@H](Oc3ccccc3)[C@@H](OC)[C@H](C)OC2=O)c1O ?
0 to 80%
